meta.source: patent US20200354425A1

biological target: Human glucagon receptor (human, UniProt P47871); experiment: cell-based or functional assay
*1 amine or outer side, *2 acyl side, *3 side chain or, on linkers, in order; H or OH if unused. Bridges are numbered along the chain shown (N, C = ends). Where no end group is shown, it is not given here. Side-chain parts run from the residue outwards. [ ]: non-standard residue; d: D form. The star is where a group is joined. γGlu = O=C(O)[C@H](CCC(=O)[*:2])N[*:1]; Stearoyl = CCCCCCCCCCCCCCCCCC(=O)*; AEEA = NCCOCCOCC(=O)O; Aib = CC(C)(N)C(=O)O
ASSAY_METRIC: EC50(pM), CRE-driven luciferase activity

Look over these answered cases.
HXQGTFTSDXSKYLDERRAKDFVQWLMNTK (not fully specified; Aib at position 2; Z at position 10 = Lys([(2-(2-(2-aminoethoxy)ethoxy)acetoyl)2]-[gamma glutamicacid]-[octadecanoyl]); a ring formed between E and K (positions 16 and 20) via leucine cross-link) [Compound 36] :: < 10 pM
HXQGTFTSDXSKYLDERRAKDFVQWLMNTK (Aib at position 2; Z at position 10 = Lys([(2-(2-(2-aminoethoxy)ethoxy)acetoyl)2]-[gamma glutamicacid]-[octadecanoyl]); lactam ring formed between E and K (positions 16 and 20)) [Compound 14] :: < 10 pM
HXQGTFTSDXSKYLDERRAEDFVQWLMNTK (Aib at position 2; Z at position 10 = Lys([(2-(2-(2-aminoethoxy)ethoxy)acetoyl)2]-[gamma glutamicacid]-[octadecanoyl]); a ring formed between E and E (positions 16 and 20) via 1,4-phenylenediamino cross-link) [Compound 29] :: < 10 pM
H[Aib]QGTFTSDK([AEEA-AEEA-γGlu-Stearoyl])SKYLDKRRAEDFVQWLMNTK (lactam 16-20) [Compound 21] :: < 10 pM
H-H[Aib]QGTFTSDK([AEEA-AEEA-γGlu-Stearoyl])SKYLDDRRAKDFVQWLMNTK-OH (bridge 16-20; not fully specified (bridges); printed as H-HAibQGTFTSDZSKYLDDRRAKDFVQWLMNTK-OH) [Compound 38] :: < 10 pM
HXQGTFTSDXSKYLDXRRAQDFVQWLMNTK (Aib at positions 2 and 16; Z at position 10 = Lys([(2-(2-(2-aminoethoxy)ethoxy)acetoyl)2]-[gamma glutamicacid]-[octadecanoyl]); C-terminal amide (-NH2)) [Compound 6] :: < 10 pM

Please go through the list and note EC50(pM), CRE-driven luciferase activity for each binder.
1. H[Aib]QGTFTSDK([AEEA-AEEA-γGlu-Stearoyl])SKYLDKRRAKDFVQWLMNTK (linker 16-20 via 1,4‑phenylenebiscarbconyl) [Compound 31]
2. HXQGTFTSDXSKYLDXRRAQDFVQWLMNTK (Aib at positions 2 and 16; Z at position 10 = Lys([(2-(2-(2-aminoethoxy)ethoxy)acetoyl)2]-[gamma glutamicacid]-[octadecanoyl])) [Compound 3]
3. H[Aib]QGTFTSDK([AEEA-AEEA-γGlu-Stearoyl])SKYLDCRRACDFVQWLMNTK (linker 16-20 via 1,3‑phenyhenedimethyl) [Compound 22]
4. H[Aib]QGTFTSDK([AEEA-AEEA-γGlu-Stearoyl])SKYLDKRRADDFVQWLMNTK (lactam 16-20) [Compound 27]

Outgoing:
1. < 10 pM
2. < 10 pM
3. < 10 pM
4. < 10 pM

Look up EC50(pM), CRE-driven luciferase activity for the entries below, preserving their order.
1. HXQGTFTSDXSKYLDXRRAQDFVQWLMNTK (not fully specified; Aib at positions 2 and 16; Z at position 10 = Lys([(2-(2-(2-aminoethoxy)ethoxy)acetoyl)2]-[gammaglutamicacid]-[15-carboxypeptadecanoyl]) (so in the source)) [Compound 42]
2. HXQGTFTSDXSKYLDERRAKDFVQWLMNTK (Aib at position 2; Z at position 10 = Lys([(2-(2-(2-aminoethoxy)ethoxy)acetoyl)3]-[gamma glutamicacid]-[octadecanoyl]); lactam ring formed between E and K (positions 16 and 20)) [Compound 20]
3. HXQGTFTSDXSKYLDXRRAQDFVQWLMNTK (Aib at positions 2 and 16; Z at position 10 = Lys([(2-(2-(2-aminoethoxy)ethoxy)acetoyl)2]-[gammaglutamicacid]-[17-carboxyheptadecanoyl])) [Compound 43]

Outgoing:
1. > 1000 pM
2. < 10 pM
3. > 1000 pM

Field: EC50(pM), CRE-driven luciferase activity. Fill in for each record below.
1. HXQGTFTSDXSKYLDERRAEDFVQWLMNTK (Aib at position 2; Z at position 10 = Lys([(2-(2-(2-aminoethoxy)ethoxy)acetoyl)2]-[gamma glutamicacid]-[octadecanoyl]); a ring formed between E and E (positions 16 and 20) via 1,4-piperazinyl cross-link) [Compound 23]
2. H[Aib]QGTFTSK([AEEA-AEEA-γGlu-Stearoyl])YSKYLD[Aib]RRAQDFVQWLMNTK [Compound 40]
3. H-H[Aib]QGTFTSDK([AEEA-AEEA-γGlu-Stearoyl])SKYLDDRRAKDFVQWLMNTK-OH (bridge 16-20; not fully specified (bridges); printed as H-HAibQGTFTSDZSKYLDDRRAKDFVQWLMNTK-OH) [Compound 37]
4. HXQGTFTSDXSKYLDERRAKDFVQWLMNTK (not fully specified; Aib at position 2; Z at position 10 = Lys([(2-(2-(2-aminoethoxy)ethoxy)acetoyl)2]-[gamma glutamicacid]-[octadecanoyl]); a ring formed between E and K (positions 16 and 20) via 4-aminobenzoyl cross-link) [Compound 34]
5. HXQGTFTSDXSKYLDERRAKDFVQWLMNTK (not fully specified; Aib at position 2; Z at position 10 = Lys([(2-(2-(2-aminoethoxy)ethoxy)acetoyl)2]-[gamma glutamicacid]-[octadecanoyl]); a ring formed between E and K (positions 16 and 20) via glycine cross-link) [Compound 35]
6. HXQGTFTSDXSKYLDERRAKDFVQWLMNTK (Aib at position 2; Z at position 10 = Lys([(2-(2-(2-aminoethoxy)ethoxy)acetoyl)4]-[gamma glutamicacid]-[octadecanoyl]); lactam ring formed between E and K (positions 16 and 20)) [Compound 25]
7. H[Aib]QGTFTSDK([AEEA-AEEA-γGlu-Stearoyl])SKYLD[Aib]RRAQDFVQWLLRAK [Compound 12]

Outgoing:
1. < 10 pM
2. > 1000 pM
3. < 10 pM
4. < 10 pM
5. < 10 pM
6. < 10 pM
7. < 10 pM

Provide the reported EC50(pM), CRE-driven luciferase activity of each entry below, same order.
1. HXQGTFTSDXSKYLDXRRAQDFVQWLMNTK (not fully specified; Aib at positions 2 and 16; Z at position 10 = Lys([(2-(2-(2-aminoethoxy)ethoxy)acetoyl)2]-[gammaglutamicacid]-[19-carboxypeptadecanoyl]) (so in the source)) [Compound 44]
2. HXQGTFTSDXSKYLDERRAKDFVQWLMNTK (Aib at position 2; Z at position 10 = Lys([(2-(2-(2-aminoethoxy)ethoxy)acetoyl)2]-[gamma glutamicacid]-[octadecanoyl]); a ring formed between E and K (positions 16 and 20) via 1-aminocyclohexan-4-carbonyl cross-link) [Compound 33]

Outgoing:
> 1000 pM
< 10 pM
